Origin of the recorded values: patent US12685312B2

Tested on: apyrase
Assay: Screen for apyrase inhibitors (Method 1, in vitro phosphate-release absorbance assay)
Format: biochemical
Details: inhibitor conc at 1 mM stock, 1 hr room temperature, absorbance 630 nm; rounded average of two assay results
endpoint-name: % Inhibition of Apyrase (%)

* O=C(Nc1cccc(-c2ccn[nH]2)c1)c1cccc(S(=O)(=O)Nc2ccc(Br)cc2)c1 | 73
* CN(C)S(=O)(=O)c1cccc(NC(=O)c2cccc(S(=O)(=O)N3CCc4ccccc43)c2)c1 | 53
* O=C(Nc1cccc(S(=O)(=O)Nc2ccc(Br)cc2)c1)c1ccc(Cl)nc1 [I-703] | 71
* CC1Cc2ccccc2N1C(=O)c1ccc(S(=O)(=O)Nc2ccccc2)cc1 (stereo not shown) [I-857] | 76
